B1: FCHO1 (parent)
chain: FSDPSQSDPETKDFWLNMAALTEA

- Variants of: B1
- Experimental details: protein stability index of a GFP-peptide fusion (GPS, HEK-293T) (PSI 1-6); higher = more stable;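 further: lentivirally expressed fusions sorted by FACS into six bins by GFP to DsRed ratio, PSI derived from sequencing read proportions per bin multiplied by bin number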
- Experimental conditions: c terminus: a fixed tail appended
The threshold is inclusive: protein stability index of exactly 3 counts as true (1); values below receive false (0).

Problem: Test whether the variant "FSDPSQSDPETKDFWRNMAALTEA" records protein stability index of 3 or higher.
Solution: false (0)

Problem: Test whether the variant "FSDPSQSDPETRDFWLNMAALTEA" records protein stability index of 3 or higher.
Solution: false (0)

Problem: Test whether the variant "FSDPSQSDPETKDKWLNMAALTEA" records protein stability index of 3 or higher.
Solution: true (1)

Problem: Test whether the variant "FSDPSQSDPETKDFWLNMAYLTEA" records protein stability index of 3 or higher.
Solution: false (0)

Problem: Test whether the variant "FSDPSQQDPETKDFWLNMAALTEA" records protein stability index of 3 or higher.
Solution: true (1)

Problem: Test whether the variant "FSDPSQSDPETKDFWLNMAALAEA" records protein stability index of 3 or higher.
Solution: false (0)

Problem: Test whether the variant "FSDPSQSDPETKDFWLNMAALTQA" records protein stability index of 3 or higher.
Solution: false (0)

Problem: Test whether the variant "FSDPSQSDPSTKDFWLNMAALTEA" records protein stability index of 3 or higher.
Solution: false (0)

Problem: Test whether the variant "FSDPSQSDPETKDFWLNMAAFTEA" records protein stability index of 3 or higher.
Solution: false (0)

Problem: Test whether the variant "FSDPSQSDPETKDFWLNMAAATEA" records protein stability index of 3 or higher.
Solution: false (0)

Problem: Test whether the variant "FSDPSQSDPETKDFWLNMAADTEA" records protein stability index of 3 or higher.
Solution: true (1)

Problem: Test whether the variant "FSDPSQSDPETKDFWLNMAALTNA" records protein stability index of 3 or higher.
Solution: false (0)

Problem: Test whether the variant "FSEPSQSDPETKDFWLNMAALTEA" records protein stability index of 3 or higher.
Solution: false (0)

Problem: Test whether the variant "FSDPSQSDPETKKFWLNMAALTEA" records protein stability index of 3 or higher.
Solution: false (0)

Problem: Test whether the variant "FSDPSQSDPETKDFNLNMAALTEA" records protein stability index of 3 or higher.
Solution: true (1)

Problem: Test whether the variant "FSDPSQFDPETKDFWLNMAALTEA" records protein stability index of 3 or higher.
Solution: false (0)

Problem: Test whether the variant "FSDPSCSDPETKDFWLNMAALTEA" records protein stability index of 3 or higher.
Solution: false (0)

Problem: Test whether the variant "FSDPWQSDPETKDFWLNMAALTEA" records protein stability index of 3 or higher.
Solution: false (0)

Problem: Test whether the variant "FSDPSQSDPEDKDFWLNMAALTEA" records protein stability index of 3 or higher.
Solution: true (1)

Problem: Test whether the variant "FSDPSQSDPETKDFWLNMAALYEA" records protein stability index of 3 or higher.
Solution: false (0)

Problem: Test whether the variant "FSDPSQSDPETKDFWLNMRALTEA" records protein stability index of 3 or higher.
Solution: true (1)

Problem: Test whether the variant "FKDPSQSDPETKDFWLNMAALTEA" records protein stability index of 3 or higher.
Solution: true (1)

Problem: Test whether the variant "FSDPSQSDPETKDFWLNMAALTEG" records protein stability index of 3 or higher.
Solution: false (0)

Problem: Test whether the variant "FSDPSKSDPETKDFWLNMAALTEA" records protein stability index of 3 or higher.
Solution: false (0)
